target: pTyr-containing peptide (pEZ) derived from Ezrin, PPV{pTyr}EPVS; experiment: fluorescence polarization; fold change over wt Fes SH2
test-readout: Fold Change (fold)
Give the value in fold but do not write fold after it.

INSERT INTO measurements (binder, result_units, obs_value) VALUES
  ('sFes^4, superbinder Fes SH2 domain variant (designed binder) MKIEEHHHHHHSSGKLGLNDIFEAQKIEWHESSGEDLYFQSGTTMDDYKDDDDKGGSEVQKPLHEQLWYHGAIPRAEVAELLVHSGDFLVRESQGRKVYVLSVLWDGLPRHFIIQSLDNLYRLEGEGFPSIPLLIDHLLSTQQPLTKKSGVVLHRAVPSR', 'fold', 77),
  ('sFes^5, superbinder Fes SH2 domain variant (designed binder) MKIEEHHHHHHSSGKLGLNDIFEAQKIEWHESSGEDLYFQSGTTMDDYKDDDDKGGSEVQKPLHEQLWYHGAIPRAEVAELLVHSGDFLVRESISKQGYVLSVLWDGLPRHFLIQSLDNLYRLEGEGFPSIPLLIDHLLSTQQPLTKKSGVVLHRAVPSR', 'fold', 33.8),
  ('sFes^3, superbinder Fes SH2 domain variant (designed binder) MKIEEHHHHHHSSGKLGLNDIFEAQKIEWHESSGEDLYFQSGTTMDDYKDDDDKGGSEVQKPLHEQLWYHGAIPRAEVAELLVHSGDFLVRESPRIQEYVLSVLWDGLPRHFIIQSLDNLYRLEGEGFPSIPLLIDHLLSTQQPLTKKSGVVLHRAVPSR', 'fold', 95.9);

Kindly review the next binder as well.
INPUT: So what's the measured Fold Change for this one? sFes^6, superbinder Fes SH2 domain variant (designed binder) MKIEEHHHHHHSSGKLGLNDIFEAQKIEWHESSGEDLYFQSGTTMDDYKDDDDKGGSEVQKPLHEQLWYHGAIPRAEVAELLVHSGDFIVRESQTYPGYVLSVLWDGLPRHFIIQSLDNLYRLEGEGFPSIPLLIDHLLSTQQPLTKKSGVVLHRAVPSR
OUTPUT: 28
